Give measured RP-LC retention time for each item. Keep answers brief.
# Assay: gradient 5% acetonitrile 3 min, to 50% in 2 min, to 85% in 15 min, held 3 min, 100 µL/min
# Run conditions: column: Zorbax Extend-C18 2.1 x 50 mm; eluents: water / acetonitrile, 0.1% formic acid
Numbers only, in s.

Return reported RP-LC retention time values for all items listed beneath this line.
1. Fc1ccc(-c2nc3ncccn3c2NCc2ccc(Cl)cc2)cc1
2. CC(C)n1c(=O)oc2cc(-c3noc(-c4cccc(Cl)c4)n3)ccc21
3. CCOc1ccc(C(=O)N2CCC[C@@H]2C(=O)NCCc2csc(C)n2)cc1
4. CCNC(=O)NS(=O)(=O)c1sc(CC(C)C)cc1-c1ccc(Cn2c(-c3ccccc3)nc(OC)c2C=O)cc1
5. COc1ccc2[nH]c3c(c2c1)CCNC31CCN(S(=O)(=O)c2c(C)nn(C)c2C)CC1
6. CCNC(=O)Nc1ccc2c(c1)CN(S(=O)(=O)c1cn(C)cn1)CCO2
7. COC(=O)c1cc2n(n1)CC(C)(C(=O)NC1CCCC1)N(c1ccc(F)cc1C)C2=O (stereo not drawn)
8. CC(C)(C)CC(=O)Nc1cnc(-c2cccnc2)nc1

Data returned:
1: 782; 2: 1180; 3: 846; 4: 1280; 5: 641; 6: 625; 7: 845; 8: 665
